System: Trichophyton rubrum
Assay: Antifungal activity against Trichophyton rubrum at 50 uL/well by well diffusion assay
Assay type: functional
Here the recorded diameter of the inhibition zone (DIZ) is given for each entry.
result type: diameter of the inhibition zone (DIZ) (mm)

>>> reading("N#Cc1c2c(c(-n3[nH]c(=O)cc3N)[nH]c1=S)CCCC2")
0
>>> reading("Cc1cc(C)n(-c2nc(SCC(=O)c3ccccc3)c(C#N)c3c2CCCC3)n1")
0
>>> reading("CCOC(=O)CSc1nc(-n2nc(C)cc2C)c2c(c1C#N)CCCC2")
0

* * *

Quick list: diameter of the inhibition zone (DIZ) per entry.
Tested on: Aspergillus flavus
Experiment: Antifungal activity against Aspergillus flavus at 2% by disc diffusion assay
result type: diameter of the inhibition zone (DIZ)

>>> reading("N#Cc1c(SCC(N)=O)nc(NN)c2c1CCCC2")
"0 mm"
>>> reading("N#CCSc1nc(NN)c2c(c1C#N)CCCC2")
"0 mm"
>>> reading("CC(=O)CSc1c(C#N)c2c(c3nncn13)CCCC2")
"0 mm"
>>> reading("Clc1ccccc1C(c1ccccc1)(c1ccccc1)n1ccnc1")
"26 mm"
>>> reading("N#CCSc1c(C#N)c2c(c3nncn13)CCCC2")
"0 mm"
>>> reading("CC(=O)CSc1nc(NN)c2c(c1C#N)CCCC2")
"0 mm"

* * *

Parameter diameter of the inhibition zone (DIZ): see the listing below.
Tested on: Aspergillus flavus
Assay: Antifungal activity against Aspergillus flavus at 2% by disc diffusion assay
result type: diameter of the inhibition zone (DIZ) (mm)

>>> reading("CCOC(=O)CSc1nc(-n2nc(C)cc2C)c2c(c1C#N)CCCC2")
0
>>> reading("Cc1cc(C)n(-c2[nH]c(=S)c(C#N)c3c2CCCC3)n1")
0
>>> reading("CCOC(=O)c1sc2c(c1N)c1c(c3nncn32)CCCC1")
8
>>> reading("N#Cc1c(SCC(=O)c2ccccc2)nc(NN)c2c1CCCC2")
0
>>> reading("NC(=O)c1sc2c(c1N)c1c(c3nncn32)CCCC1")
0
>>> reading("N#Cc1c2c(c(N3N=C(c4ccccc4)CC3=O)[nH]c1=S)CCCC2")
0
>>> reading("N#Cc1c2c(c(NN)[nH]c1=S)CCCC2")
10
>>> reading("CCOC(=O)CSc1nc(NN)c2c(c1C#N)CCCC2")
0
>>> reading("N#Cc1c2c(c3nncn3c1SCC(=O)c1ccccc1)CCCC2")
20
>>> reading("N#Cc1c2c(c(-n3[nH]c(=O)cc3N)[nH]c1=S)CCCC2")
0
>>> reading("Cc1cc(C)n(-c2nc(SCC(=O)c3ccccc3)c(C#N)c3c2CCCC3)n1")
0
>>> reading("Nc1c(C(=O)c2ccccc2)sc2c1c1c(c3nncn32)CCCC1")
15
>>> reading("CCOC(=O)CSc1c(C#N)c2c(c3nncn13)CCCC2")
0
>>> reading("N#Cc1c2c(c3nncn3c1SCC(N)=O)CCCC2")
0
>>> reading("CC(=O)CSc1nc(-n2nc(C)cc2C)c2c(c1C#N)CCCC2")
0
>>> reading("N#Cc1sc2c(c1N)c1c(c3nncn32)CCCC1")
0
>>> reading("CC(=O)c1sc2c(c1N)c1c(c3nncn32)CCCC1")
0
>>> reading("Cc1cc(C)n(-c2nc(SCC#N)c(C#N)c3c2CCCC3)n1")
0
>>> reading("Cc1cc(C)n(-c2nc(SCC(N)=O)c(C#N)c3c2CCCC3)n1")
0
>>> reading("N#Cc1c2c(c3[nH]ncn3c1=S)CCCC2")
0
